// Kd lookup, one value per entry
Biological target: Pgk1 (Homo sapiens)
Assay: Affinity for Pgk1 protein (Biacore T200 chip)
Type: binding
Conditions: Pgk1 immobilized on Biacore T200 chip; read-out: Affinity
Your answer is read as µM, so omit the unit and give the number.

{"SMILES_ENTRY": "Nc1nc(N2CCN(C(=O)[C@@H]3CCCN3)CC2)cc2cc3c(cc12)OCO3", "Kd / µM": 811}

Shifting focus to the molecule that follows.
Prompt line: Supply measured Kd of Nc1nc(N2CCN(C(=O)[C@H]3CCCN3)CC2)cc2cc3c(cc12)OCO3 in your reply.
Response line: 473

====

Target: Pgk1 (Homo sapiens)
Experiment: Affinity for Pgk1 protein (Biacore T200 chip)
Type: binding
Conditions: unit inferred; read-out: KD value
RESULT_TYPE: pKd
Units for pKd: none; it is -log10 of a concentration expressed in mol/L.

Prompt line: Answer with the recorded pKd of Nc1ncnc2c1ncn2[C@@H]1O[C@H](COP(=O)(O)OP(=O)(O)O)[C@@H](O)[C@H]1O [ADP, reference compound] only.
Response line: 3.47

====

Target: Pgk1 (Homo sapiens)
Test: Affinity for Pgk1 protein (Biacore T200 chip)
Format: binding
Conditions: amount of drug bound to the target protein when the affinity was detected
RESULT_TYPE: Rmax

{"MOLECULE": "Nc1nc(N2CCN(C(=O)c3ccco3)CC2)cc2cc3c(cc12)OCO3", "RESULT": "None"}
{"MOLECULE": "Nc1nc(N2CCN(C(=O)[C@H]3CCCN3)CC2)cc2cc3c(cc12)OCO3", "RESULT": "87 RU"}
{"MOLECULE": "Nc1ncnc2c1ncn2[C@@H]1O[C@H](COP(=O)(O)OP(=O)(O)O)[C@@H](O)[C@H]1O [ADP, reference compound]", "RESULT": "35 RU"}
{"MOLECULE": "Nc1nc(N2CCN(C(=O)[C@H]3CCCO3)CC2)cc2cc3c(cc12)OCCO3", "RESULT": "None"}

====

Molecular target: Pgk1 (Homo sapiens, UniProt P00558)
Sequence (P00558 1-417): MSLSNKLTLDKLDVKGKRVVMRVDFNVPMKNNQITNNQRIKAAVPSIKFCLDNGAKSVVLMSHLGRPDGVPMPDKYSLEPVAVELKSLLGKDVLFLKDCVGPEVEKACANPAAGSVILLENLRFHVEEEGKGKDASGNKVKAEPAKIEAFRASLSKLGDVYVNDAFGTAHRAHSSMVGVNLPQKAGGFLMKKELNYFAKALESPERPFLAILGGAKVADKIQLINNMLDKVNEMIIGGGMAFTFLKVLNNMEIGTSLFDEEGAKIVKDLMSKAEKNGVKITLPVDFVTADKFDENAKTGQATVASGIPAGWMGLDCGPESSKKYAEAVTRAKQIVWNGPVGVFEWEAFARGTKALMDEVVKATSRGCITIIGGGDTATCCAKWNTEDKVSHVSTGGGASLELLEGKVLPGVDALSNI
Assay: Affinity for Pgk1 protein (Biacore T200 chip)
Type: binding
Conditions: amount of drug bound to the target protein when the affinity was detected
compounds and their reported Rmax
Enter your answer as a number in RU; do not include the unit.

Examples from the recorded data:
{"COMPOUND": "CC1(C)Oc2cc3cc(N4CCN(C(=O)[C@H]5CCCO5)CC4)nc(N)c3cc2O1", "UNIT_INFO": "RU", "Rmax": 75}
{"COMPOUND": "Nc1nc(N2CCN(C(=O)[C@@H]3CCCN3)CC2)cc2cc3c(cc12)OCO3", "UNIT_INFO": "RU", "Rmax": 87}
{"COMPOUND": "CC1Oc2cc3cc(N4CCN(C(=O)[C@H]5CCCO5)CC4)nc(N)c3cc2O1 (stereo partly shown)", "UNIT_INFO": "RU", "Rmax": 93}

Now for a further compound.
Prompt line: Report measured Rmax on Pgk1 (Homo sapiens, UniProt P00558); entry: Nc1nc(N2CCN(C(=O)[C@H]3CCCO3)CC2)cc2cc3c(cc12)CCO3
Response line: 86

====

compounds and their reported pKd
Target: Pgk1 (Homo sapiens)
Sequence (P00558 1-417): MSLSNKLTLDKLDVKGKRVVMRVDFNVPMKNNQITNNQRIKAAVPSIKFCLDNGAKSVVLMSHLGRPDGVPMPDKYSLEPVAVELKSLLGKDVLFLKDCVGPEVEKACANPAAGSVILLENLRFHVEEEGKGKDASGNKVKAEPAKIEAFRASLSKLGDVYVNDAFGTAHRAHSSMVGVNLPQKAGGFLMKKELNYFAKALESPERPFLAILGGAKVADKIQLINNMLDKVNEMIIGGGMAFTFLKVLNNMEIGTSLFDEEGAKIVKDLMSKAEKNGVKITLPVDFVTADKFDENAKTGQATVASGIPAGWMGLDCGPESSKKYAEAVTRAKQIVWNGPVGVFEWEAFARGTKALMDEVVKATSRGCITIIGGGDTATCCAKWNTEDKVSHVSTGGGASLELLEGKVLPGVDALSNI
Experiment: Affinity for Pgk1 protein (Biacore T200 chip)
Assay type: binding
Details: Pgk1 immobilized on Biacore T200 chip; read-out: Affinity
Please express pKd as -log10 of the molar concentration.

{"COMPOUND": "CC1(C)Oc2cc3cc(N4CCN(C(=O)[C@H]5CCCO5)CC4)nc(N)c3cc2O1 [Compound T4]", "RESULT_TYPE": "pKd", "NUMERIC_RESULT": 3.14}
{"COMPOUND": "Nc1nc(N2CCN(C(=O)[C@H]3CCCO3)CC2)cc2cc3c(cc12)CCO3 [Compound T5]", "RESULT_TYPE": "pKd", "NUMERIC_RESULT": 3.56}
{"COMPOUND": "CC1Oc2cc3cc(N4CCN(C(=O)[C@H]5CCCO5)CC4)nc(N)c3cc2O1 (some centres unmarked) [Compound T3]", "RESULT_TYPE": "pKd", "NUMERIC_RESULT": 3.17}
{"COMPOUND": "Nc1nc(N2CCN(C(=O)[C@@H]3CCCO3)CC2)cc2cc3c(cc12)OCO3 [Compound T2]", "RESULT_TYPE": "pKd", "NUMERIC_RESULT": 3.35}
{"COMPOUND": "Nc1nc(N2CCN(C(=O)[C@H]3CCCO3)CC2)cc2cc3c(cc12)OCC3 [Compound T6]", "RESULT_TYPE": "pKd", "NUMERIC_RESULT": 3.43}
{"COMPOUND": "Nc1nc(N2CCN(C(=O)[C@H]3CCCO3)CC2)cc2cc3c(cc12)OCO3 [Compound T1]", "RESULT_TYPE": "pKd", "NUMERIC_RESULT": 3.30}

Kindly consider the entry below.
Prompt line: Quote pKd reported for Nc1nc(N2CCN(C(=O)C3CCCC3)CC2)cc2cc3c(cc12)OCO3 [Compound T7] please.
Response line: 3.06
